Entries and their IC50
# system: HCV polymerase (NS5B) type 1a (Hepatitis C virus genotype 1a, UniProt P26664)
# Construct: made in house; host or cells: Escherichia coli (by the 'similar method' of the 1b enzyme)
# measurement description: Assay of enzyme (HCV polymerase) inhibitory activity, type 1a enzyme
# Type: biochemical, HCV type 1a (cloned from the blood of patients)
# experimental setup: HCV polymerase inhibitory activity IC50, 1a, type 1a enzyme

For orientation, consider the following solved cases.
[
  {
    "molecule": "O=C(NCC1CC1c1ccccc1)[C@H]1CN(c2cnc3cncnc3n2)CCN1S(=O)(=O)c1ccc(OC(F)(F)F)cc1 (stereo partly drawn)",
    "readout value": "0.1 to 1 µM"
  },
  {
    "molecule": "CCCc1ccc(CNC(=O)[C@H]2CN(c3ccc(C(=O)O)c(C)n3)CCN2S(=O)(=O)c2ccc(OC(F)(F)F)cc2)cc1",
    "readout value": "< 0.1 µM"
  },
  {
    "molecule": "O=C(NCc1ccc(C2CC2)cc1)[C@H]1CN(c2nc3ncncc3s2)CCN1S(=O)(=O)c1ccc(OC(F)(F)F)cc1",
    "readout value": "< 0.1 µM"
  },
  {
    "molecule": "O=C(NCc1ccc(OC(F)(F)F)cc1)[C@H]1CN(c2cnc3cnccc3n2)CCN1S(=O)(=O)c1ccc(Br)s1",
    "readout value": "< 0.1 µM"
  },
  {
    "molecule": "O=C(NCc1ccc(OC(F)(F)F)cc1)[C@H]1CN(c2nc3ccc(=O)[nH]c3s2)CCN1S(=O)(=O)c1ccc(OC(F)(F)F)cc1",
    "readout value": "< 0.1 µM"
  }
]

// below: IC50 requested for another molecule
Ask: Which IC50 value belongs to CCCc1ccc(CNC(=O)[C@H]2CN(c3cnc4cncc(Br)c4n3)CCN2S(=O)(=O)c2ccc(CC)cc2)cc1 ?
Result: < 0.1 µM
